# assayed-system: T1, KRAS WT peptide on HLA-A*11:01 (human)
# T1 peptide: VVVGAGGVGK
# test: SPR; >4000-fold weaker than to KRAS G12D; soluble, with an engineered disulfide between the constant domains
measured-metric: pKd
# log scale: pKd equals minus log10 of the concentration in mol/L

Name the recorded pKd of the item JDIa41b1 TCR (TCR) alpha TRAV19*01 CDR3: AMSVPSGDGSYQFT beta TRBV6-2*01 CDR3: ASKVGPGQHNSPLH in your answer.
5.52
